Data credit: patent US20230072683A1

molecules and their reported inhibition at 0.1 µM
# tgt: PI3K-δ (PI3K(p1108/p857) (h)) (Homo sapiens, UniProt O00329)
# Sequence (O00329 whole entry): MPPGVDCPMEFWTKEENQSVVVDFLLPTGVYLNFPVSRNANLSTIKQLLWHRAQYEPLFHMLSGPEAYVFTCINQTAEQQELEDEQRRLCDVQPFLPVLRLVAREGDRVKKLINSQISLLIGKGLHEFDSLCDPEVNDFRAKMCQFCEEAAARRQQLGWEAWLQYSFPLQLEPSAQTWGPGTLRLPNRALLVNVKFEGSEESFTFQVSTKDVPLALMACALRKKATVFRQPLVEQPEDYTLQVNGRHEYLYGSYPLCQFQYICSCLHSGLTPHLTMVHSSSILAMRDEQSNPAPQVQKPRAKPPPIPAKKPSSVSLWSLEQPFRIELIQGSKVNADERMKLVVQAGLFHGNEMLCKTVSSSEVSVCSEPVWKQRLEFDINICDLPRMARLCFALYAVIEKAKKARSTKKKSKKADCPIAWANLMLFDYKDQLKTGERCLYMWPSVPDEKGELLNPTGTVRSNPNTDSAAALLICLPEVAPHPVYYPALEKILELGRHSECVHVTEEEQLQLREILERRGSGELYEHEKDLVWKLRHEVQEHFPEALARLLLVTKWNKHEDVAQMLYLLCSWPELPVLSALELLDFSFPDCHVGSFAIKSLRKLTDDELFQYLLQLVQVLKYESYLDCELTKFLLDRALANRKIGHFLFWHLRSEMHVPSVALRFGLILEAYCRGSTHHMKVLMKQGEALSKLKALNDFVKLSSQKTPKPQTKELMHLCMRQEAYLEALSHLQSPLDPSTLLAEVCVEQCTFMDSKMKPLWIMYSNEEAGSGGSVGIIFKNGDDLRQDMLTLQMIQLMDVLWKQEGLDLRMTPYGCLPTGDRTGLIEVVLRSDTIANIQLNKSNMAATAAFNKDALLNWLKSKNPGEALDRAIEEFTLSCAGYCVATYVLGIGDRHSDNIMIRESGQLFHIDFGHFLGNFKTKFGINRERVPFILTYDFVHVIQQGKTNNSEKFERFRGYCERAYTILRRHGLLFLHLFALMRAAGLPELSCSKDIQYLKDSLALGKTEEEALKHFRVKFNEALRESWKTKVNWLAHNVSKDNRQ
# Sequence (P27986 whole entry partner): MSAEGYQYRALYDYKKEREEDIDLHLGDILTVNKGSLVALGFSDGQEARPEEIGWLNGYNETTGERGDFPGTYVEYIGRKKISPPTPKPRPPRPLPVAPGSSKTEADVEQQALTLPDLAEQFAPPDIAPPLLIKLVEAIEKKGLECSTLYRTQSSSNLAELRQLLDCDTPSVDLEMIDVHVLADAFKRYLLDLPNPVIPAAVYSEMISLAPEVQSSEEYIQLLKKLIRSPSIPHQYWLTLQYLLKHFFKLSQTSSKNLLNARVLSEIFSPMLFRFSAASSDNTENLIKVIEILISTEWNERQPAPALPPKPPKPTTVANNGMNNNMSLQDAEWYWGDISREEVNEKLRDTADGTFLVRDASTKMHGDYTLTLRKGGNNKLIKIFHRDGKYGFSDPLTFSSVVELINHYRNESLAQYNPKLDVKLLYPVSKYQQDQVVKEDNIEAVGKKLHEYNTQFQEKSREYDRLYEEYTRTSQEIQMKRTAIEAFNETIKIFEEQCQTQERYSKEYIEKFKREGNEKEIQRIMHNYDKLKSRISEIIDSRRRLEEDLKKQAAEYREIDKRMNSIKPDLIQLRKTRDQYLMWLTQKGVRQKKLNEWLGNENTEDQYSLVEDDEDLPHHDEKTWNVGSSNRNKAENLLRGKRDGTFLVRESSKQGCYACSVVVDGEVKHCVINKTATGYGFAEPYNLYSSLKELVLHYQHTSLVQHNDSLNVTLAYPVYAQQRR
# procedureSummary: Evaluation of inhibitory activity against PI3K-δ (HTRF kinase assay)
# Assay type: biochemical
# conditionInfo: compound at 0.1 μM; read-out: EXP_VALUE(% Inhibition) PI3K-δ 0.1 μM
// units = %; emit number, no label

molecule: C[C@H](Nc1ncnc2[nH]ccc(=O)c12)c1c(Cl)c2cccc([S@+]([O-])c3ccc(OC(F)(F)F)cc3)c2c(=O)n1-c1ccccc1 [Example 395]
propertyName: inhibition at 0.1 µM
testValue: 12

Input: Report inhibition at 0.1 µM for C[C@H](Nc1ncnc2[nH]ccc(=O)c12)c1c(Cl)c2cccc(-c3cnc(OC(C)(C)C)nc3)c2c(=O)n1-c1ccccc1 [Example 424] tested on PI3K-δ (PI3K(p1108/p857) (h)) (Homo sapiens, UniProt O00329).
Output: 38

Input: Another molecule to look at: C[C@H](Nc1ncnc2[nH]ccc(=O)c12)c1c(Cl)c2cccc(S(=O)(=O)c3ccccn3)c2c(=O)n1-c1ccccc1 [Example 414]
Output: 44

---

# tgt: PI3K-δ (PI3K(p1108/p857) (h)) (Homo sapiens, UniProt O00329)
# procedureSummary: Evaluation of inhibitory activity against PI3K-δ (HTRF kinase assay)
# Assay type: biochemical
# conditionInfo: compound concentration 0.1 μM; read-out: EXP_VALUE(% Inhibition) PI3K-δ 0.1 μM
propertyName: inhibition at 0.1 µM (%)
Provide only the numeric value, understood in %.

Examples with their reported inhibition at 0.1 µM follow.
smilesStr: C[C@H](Nc1ncnc2[nH]ccc(=O)c12)c1c(Cl)c2cccc(C#Cc3cccs3)c2c(=O)n1-c1ccccc1
testValue: 101
//
smilesStr: C[C@H](Nc1ncnc2[nH]ccc(=O)c12)c1c(Cl)c2cccc(-c3cc(Cl)ccc3F)c2c(=O)n1-c1ccccc1
testValue: 87
//
smilesStr: C[C@H](Nc1ncnc2[nH]ccc(=O)c12)c1c(Cl)c2cccc(-c3ccc(-c4cccs4)cc3)c2c(=O)n1-c1ccccc1
testValue: 79
//
smilesStr: C[C@H](Nc1ncnc2[nH]ccc(=O)c12)c1c(Cl)c2cccc(-c3ccc(N4CCOCC4)cc3)c2c(=O)n1-c1ccccc1
testValue: 86
//
smilesStr: C[C@H](Nc1ncnc2[nH]ccc(=O)c12)c1c(Cl)c2cccc(-c3ccc4[nH]cnc4c3)c2c(=O)n1-c1ccccc1
testValue: 95
//
smilesStr: C[C@H](Nc1ncnc2[nH]ccc(=O)c12)c1c(Cl)c2cccc(C#Cc3ccnn3C)c2c(=O)n1-c1ccccc1
testValue: 39.5
//
smilesStr: CCOC(=O)c1cccc2c(Cl)c([C@H](C)Nc3ncnc4[nH]ccc(=O)c34)n(-c3ccccc3)c(=O)c12
testValue: 112
//
smilesStr: C[C@H](Nc1ncnc2[nH]ccc(=O)c12)c1c(Cl)c2cccc(-c3ccccc3)c2c(=O)n1-c1ccccc1
testValue: 109

Input: Return reported inhibition at 0.1 µM; argument: `Cc1ccc(-c2cccc3c(Cl)c([C@H](C)Nc4ncnc5[nH]ccc(=O)c45)n(-c4ccccc4)c(=O)c23)o1`
Output: 91

Input: And the next one, `COc1cc(-c2cccc3cc([C@H](C)Nc4ncnc5[nH]ccc(=O)c45)n(-c4ccccc4)c(=O)c23)ccc1Cl` ?
Output: 104

Input: Please give the result for `C[C@H](Nc1ncnc2[nH]ccc(=O)c12)c1c(Cl)c2cccc(OCC(F)(F)F)c2c(=O)n1-c1ccccc1` too.
Output: 76

Input: Field entry: `C[C@H](Nc1ncnc2[nH]ccc(=O)c12)c1cc2cccc(-c3ccc(C#N)cc3)c2c(=O)n1-c1ccccc1`
Output: 96

Input: Also check `C[C@H](Nc1ncnc2[nH]ccc(=O)c12)c1c(Cl)c2cccc(-c3cnc(Cl)c4ccccc34)c2c(=O)n1-c1ccccc1`
Output: 14.5

Input: Then what about the compound `C[C@H](Nc1ncnc2[nH]ccc(=O)c12)c1c(Cl)c2cccc(-c3ccc(N)cc3)c2c(=O)n1-c1ccccc1` ?
Output: 95

---

# tgt: PI3K-δ (PI3K(p1108/p857) (h)) (Homo sapiens, UniProt O00329)
# procedureSummary: Evaluation of inhibitory activity against PI3K-δ (HTRF kinase assay)
# Assay type: biochemical
# conditionInfo: compound concentration 0.01 μM; read-out: EXP_VALUE(% Inhibition) PI3K-δ 0.01 μM
propertyName: inhibition at 0.01 µM (%)
Numeric answer only, unit % assumed.

smilesStr: C[C@H](Nc1ncnc2[nH]ccc(=O)c12)c1c(Cl)c2cccc(C#Cc3cnn(C)c3)c2c(=O)n1-c1ccccc1
testValue: 42.4

Input: I would be grateful if you could share the reported inhibition at 0.01 µM for `C[C@H](Nc1ncnc2[nH]ccc(=O)c12)c1c(Cl)c2cccc(N3CCC(N4CCCCC4)CC3)c2c(=O)n1-c1ccccc1` .
Output: 40

Input: Same question for `Cc1cc(-c2cccc3c(Cl)c([C@H](C)Nc4ncnc5[nH]ccc(=O)c45)n(-c4ccccc4)c(=O)c23)cnc1O` please.
Output: 95

Input: // same read-out, input: `COc1cc(-c2cccc3c(Cl)c([C@H](C)Nc4ncnc5[nH]ccc(=O)c45)n(-c4ccccc4)c(=O)c23)ncn1`
Output: 10

---

Listed below: inhibition at 0.01 µM values for each entry.
# tgt: PI3K-δ (PI3K(p1108/p857) (h)) (Homo sapiens)
# procedureSummary: Evaluation of inhibitory activity against PI3K-δ (HTRF kinase assay)
# Assay type: biochemical
# conditionInfo: compound concentration 0.01 μM; read-out: EXP_VALUE(% Inhibition) PI3K-δ 0.01 μM
Please give a number only; it is taken to be in %.

smilesStr: CC(C)Oc1ncc(-c2cccc3c(Cl)c([C@H](C)Nc4ncnc5[nH]ccc(=O)c45)n(-c4ccccc4)c(=O)c23)cn1
propertyName: inhibition at 0.01 µM
testValue: 85
--
smilesStr: Cc1ccc(Oc2cccc3c(Cl)c([C@H](C)Nc4ncnc5[nH]ccc(=O)c45)n(-c4ccccc4)c(=O)c23)cc1
propertyName: inhibition at 0.01 µM
testValue: 51
--
smilesStr: C[C@H](Nc1ncnc2[nH]ccc(=O)c12)c1c(Cl)c2cccc(Sc3ccc(Cl)cc3)c2c(=O)n1-c1ccccc1
propertyName: inhibition at 0.01 µM
testValue: 2
--
smilesStr: C[C@H](Nc1ncnc2[nH]ccc(=O)c12)c1c(Cl)c2cccc(-n3cccn3)c2c(=O)n1-c1ccccc1
propertyName: inhibition at 0.01 µM
testValue: 35.9
--
smilesStr: C[C@H](Nc1ncnc2[nH]ccc(=O)c12)c1cc2cccc(-c3cccnc3)c2c(=O)n1-c1ccccc1
propertyName: inhibition at 0.01 µM
testValue: 102
--
smilesStr: COc1cnc(-n2ccc(=O)c3c(N[C@@H](C)c4c(Cl)c5ccccc5c(=O)n4-c4ccccc4)ncnc32)nc1
propertyName: inhibition at 0.01 µM
testValue: 9

Now take the following compound into account.
Input: For the compound shown here, `COc1ccc(-c2cccc3c(Cl)c([C@H](C)Nc4ncnc5[nH]ccc(=O)c45)n(-c4ccccc4)c(=O)c23)cc1OC` , give the reported inhibition at 0.01 µM.
Output: 95

---

# tgt: DNA-PK(h) (Homo sapiens)
# procedureSummary: Evaluation of inhibitory activity against DNA-PK (HTRF kinase assay, GST-cMyc-p53 substrate)
# Type: biochemical
# conditionInfo: compound concentration 0.01 μM; read-out: EXP_VALUE(% Inhibition) DNA-PK(h) 0.01 μM
propertyName: inhibition at 0.01 µM (%)
Numbers only; they are read as %.

compound: CC(O)c1ccc(-c2cccc3c(Cl)c([C@H](C)Nc4ncnc5[nH]ccc(=O)c45)n(-c4ccccc4)c(=O)c23)cc1 (stereo partly drawn) [Example 57]
inhibition at 0.01 µM / %: 80

Input: What value of inhibition at 0.01 µM has been recorded for this entry: C[C@H](Nc1ncnc2[nH]ccc(=O)c12)c1c(Cl)c2cccc(-c3ccc(N4CCCCC4)nc3)c2c(=O)n1-c1ccccc1 [Example 194]
Output: 31

Input: Repeat with C[C@H](Nc1ncnc2[nH]ccc(=O)c12)c1c(Cl)c2cccc(-c3ccc[nH]3)c2c(=O)n1-c1ccccc1 [Example 258]
Output: 13

Input: How about this compound: C[C@H](Nc1ncnc2[nH]ccc(=O)c12)c1c(Cl)c2cccc(-c3cnc(N(C)C)cn3)c2c(=O)n1-c1ccccc1 [Example 205]
Output: 47

Input: Now try C[C@H](Nc1ncnc2[nH]ccc(=O)c12)c1c(Cl)c2cccc(-c3cnc4[nH]ccc4c3)c2c(=O)n1-c1ccccc1 [Example 25] .
Output: 7

Input: Now try C[C@H](Nc1ncnc2[nH]ccc(=O)c12)c1c(Cl)c2cccc(C(O)C(C)(C)C)c2c(=O)n1-c1ccccc1 (stereo partly drawn) [Example 357] .
Output: 15

---

# tgt: PI3K-δ (PI3K(p1108/p857) (h)) (Homo sapiens, UniProt O00329)
# procedureSummary: Evaluation of inhibitory activity against PI3K-δ (HTRF kinase assay)
# Format: biochemical
# conditionInfo: compound concentration 0.01 μM; read-out: EXP_VALUE(% Inhibition) PI3K-δ 0.01 μM
# Procedure: <Experimental Example 1> Evaluation of Inhibitory Activity Properties Against PI3K-δ […] A detection buffer comprising Eu (europium)-labelled anti-GST monoclonal antibody, GST-tagged GRP1 PH domain and streptavidin-allophycocyanin was added. A plate was read in a time-resolved fluorescence mode and a homogeneous time-resolved fluorescence (HTRF) signal was determined according to HTRF=10000×(Em 665 nm/Em 620 nm).
Entries and their inhibition at 0.01 µM
Could you give me the number in %? Just the number is fine.

Recorded inhibition at 0.01 µM, per entry:
smilesStr: COc1cc(-c2cccc3c(Cl)c([C@H](C)Nc4ncnc5[nH]ccc(=O)c45)n(-c4ccccc4)c(=O)c23)nc(OC)n1
tgt: PI3K-δ (PI3K(p1108/p857) (h)) (Homo sapiens, UniProt O00329)
propertyName: inhibition at 0.01 µM
resultUnits: %
testValue: 23

smilesStr: Cc1nc(-c2cccc3c(Cl)c([C@H](C)Nc4ncnc5[nH]ccc(=O)c45)n(-c4ccccc4)c(=O)c23)[nH]c1C
tgt: PI3K-δ (PI3K(p1108/p857) (h)) (Homo sapiens, UniProt O00329)
propertyName: inhibition at 0.01 µM
resultUnits: %
testValue: 28

Input: // query inhibition at 0.01 µM value for entry `C[C@H](Nc1ncnc2[nH]ccc(=O)c12)c1c(Cl)c2cccc(-c3cnc(N)nc3)c2c(=O)n1-c1ccccc1`
Output: 81
